# EXPERIMENT: Intrinsic clearance in mouse liver microsomes
# Type: in vitro ADME
Below: a set of entries, each annotated with reported CLint (intrinsic clearance when incubated with mouse liver microsomes).
Reply numerically in mL/min per gram, unit not repeated.

O=C(Nc1ccc(F)c(-c2ccn3c(N4CCOCC4)cnc3n2)c1)N1CCCC1 [Compound 8]; 0.8
O=C(Nc1cccc(-c2cn3cc(N4CCOCC4)cnc3n2)c1)N1CCCC1 [Compound 5]; 0.76
CCOc1cnc2nc(-c3cccc(NC(=O)N4CCCC4)c3)cn2c1 [Compound 4]; 0.59

With those in mind, consider the next compound.
IN: Supply reported CLint (intrinsic clearance when incubated with mouse liver microsomes) belonging to this compound: CCOc1cnc2nc(-c3cccc(NC(=O)c4ccco4)c3)cn2c1 [Compound 3]
OUT: 1.8

====

# EXPERIMENT: Pharmacokinetics in male CD-1 mice
# Type: in vivo, mouse
# REPORTED_CONDITIONS: whole blood; CD-1 male mouse, 10 mg/kg po; read-out: F (oral bioavailability)
ASSAY_READOUT: bioavailability (%)
The reply should be a number in %, with the unit left off.

IN: Using the record for O=C(Nc1ccc(F)c(-c2ccn3c(N4CCOCC4)cnc3n2)c1)N1CCCC1 [Compound 8] , state its measured bioavailability.
OUT: 18

====

# EXPERIMENT: CAD (charged aerosol detector) solubility
Let's look at some compounds and their measured solubility.
Reply with just the number (in µg/mL).

O=C(Nc1ccc(F)c(-c2cn3nc(-c4ccccc4)cnc3n2)c1)N1CCCC1 [Compound 7]; 7
CCOc1cnc2nc(-c3cccc(NC(=O)N4CCCC4)c3)cn2c1 [Compound 4]; 7

Pending compound:
IN: Please report the measured solubility for O=C(Nc1ccc(F)c(-c2ccn3c(N4CCOCC4)cnc3n2)c1)N1CCCC1 [Compound 8]
OUT: 231

====

# SYSTEM_UNDER_TEST: chymotrypsin-like activity of the L. donovani proteasome (Leishmania donovani, UniProt A0A3S7XA80+A0ACM8QMP6, G197C/T30A)
# Sequence (A0ACM8QMP6 entry or part of it, stated change not applied): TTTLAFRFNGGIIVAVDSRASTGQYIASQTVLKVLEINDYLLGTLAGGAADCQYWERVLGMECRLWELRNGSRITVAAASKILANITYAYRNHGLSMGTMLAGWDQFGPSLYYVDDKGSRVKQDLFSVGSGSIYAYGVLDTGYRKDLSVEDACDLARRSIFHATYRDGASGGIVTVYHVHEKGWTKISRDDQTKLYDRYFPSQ
# Sequence (A0A3S7XA80 whole entry, stated change not applied): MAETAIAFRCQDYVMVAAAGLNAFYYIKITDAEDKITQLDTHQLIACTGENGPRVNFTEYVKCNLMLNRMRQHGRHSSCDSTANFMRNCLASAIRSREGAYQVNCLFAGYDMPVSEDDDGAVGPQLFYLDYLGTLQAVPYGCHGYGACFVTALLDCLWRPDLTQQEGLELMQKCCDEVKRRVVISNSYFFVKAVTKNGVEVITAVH
# EXPERIMENT: biochemical
ASSAY_READOUT: IC50

IN: Provide only the value of recorded IC50 for "O=C(Nc1ccc(F)c(-c2ccn3c(N4CCOCC4)cnc3n2)c1)N1CCCC1"
OUT: > 100 µM

Data origin, for the record: paper PMC6511062
